- Tested on: T. brucei brucei bloodstream form parasites (strain Lister 427)
- method: Antitrypanosomal activity assay (resazurin; FIG. 2)
- Assay type: cell-based
- condition_context: Trypanosoma brucei; 66 h + 6 h resazurin
pIC50: −log10 of the molar value.

[
  {
    "compound": "NC(=O)Cn1nc(C(=O)NCc2ccccc2)c2c1CCN(Cc1c[nH]c3ccccc13)C2",
    "pIC50": 4.29
  },
  {
    "compound": "COc1ccc(CN2CCc3c(c(C(=O)NCc4cccc5ccccc45)nn3-c3ccccc3)C2)c2ccccc12",
    "pIC50": 5.46
  },
  {
    "compound": "O=C(NCc1ccccc1)c1nn(CCO)c2c1CN(Cc1ccn(-c3ccccc3)c1)CC2",
    "pIC50": 4.41
  },
  {
    "compound": "COc1ccc(CN2CCc3c(c(C(=O)NCc4cccc5ccccc45)nn3CC(O)CN)C2)c2ccccc12 (stereo not shown)",
    "pIC50": 6.70
  },
  {
    "compound": "COc1ccc(CN2CCc3nn(CCO)c(C(=O)NCc4cccc5ccccc45)c3C2)c2ccccc12",
    "pIC50": 5.48
  },
  {
    "compound": "O=C(NCc1cccc2ccccc12)c1nn(CCO)c2c1CN(Cc1cccc3cc[nH]c13)CC2",
    "pIC50": 5.17
  },
  {
    "compound": "COc1ccc(CN2CCc3c(c(C(=O)NCc4cccc5ccccc45)nn3-c3cnccn3)C2)c2ccccc12",
    "pIC50": 5.44
  },
  {
    "compound": "COc1ccc2c(CN3CCc4c(c(C(=O)NCc5cccc6ccccc56)nn4CCO)C3)c[nH]c2c1",
    "pIC50": 5.34
  },
  {
    "compound": "O=C(NCc1cccc2ccccc12)c1nn(CCO)c2c1CN(Cc1ccc(C(F)(F)F)cc1)CC2",
    "pIC50": 5.27
  },
  {
    "compound": "COc1ccc(CN2CCc3[nH]nc(C(=O)NCc4cccc5ccccc45)c3C2)c2ccccc12",
    "pIC50": 5.47
  },
  {
    "compound": "CCCc1ccc(CN2CCc3c(c(C(=O)NCc4cccc5ccccc45)nn3CCO)C2)cc1",
    "pIC50": 5.57
  },
  {
    "compound": "COc1ccc(CN2CCc3c(c(C(=O)NCc4cccc5ccccc45)nn3CCN3CCOCC3)C2)c2ccccc12",
    "pIC50": 5.45
  },
  {
    "compound": "COc1ccc(CN2CCc3c(c(C(=O)NCc4cccc5ccccc45)nn3CCC(C)(C)C)C2)c2ccccc12",
    "pIC50": 5.46
  },
  {
    "compound": "Cn1nc(C(=O)NCc2ccccc2)c2c1CCN(Cc1cccc3ccccc13)C2",
    "pIC50": 4.92
  },
  {
    "compound": "COc1ccc(CN2CCc3nn4c(c3C2)C(=O)N(Cc2cccc3ccccc23)CC4)c2ccccc12",
    "pIC50": 5.19
  },
  {
    "compound": "O=C(NCc1cccc2ccccc12)c1nn(CCO)c2c1CN(Cc1cccc3c1OCO3)CC2",
    "pIC50": 4.72
  }
]

* * *

// values below are reported log10(EC50)
- measured_on: PEX5-PEX14 complex (biotin-coupled PEX5 peptide, His-tagged T. brucei PEX14) (Trypanosoma brucei brucei)
- method: biochemical
- Format: binding
- condition_context: 30 nM PEX5, 30 nM PEX14; quadruplicate; read-out: AlphaScreen EC50 [μM] (±SD)
attribute_measured: log10(EC50) (log10 of the value in µM)

[
  {
    "molecule": "Cn1nc(C(=O)NCc2ccccc2)c2c1CCN(Cc1noc3c1CCCC3)C2",
    "log10(EC50)": 0.99
  },
  {
    "molecule": "COC(=O)c1cccc2c(CN3CCc4c(c(C(=O)NCc5ccccc5)nn4CCO)C3)c[nH]c12",
    "log10(EC50)": 2.19
  },
  {
    "molecule": "O=C(NCc1ccccc1)c1nn(CCO)c2c1CN(Cc1ccccc1-c1ccco1)CC2",
    "log10(EC50)": 1.89
  },
  {
    "molecule": "COc1ccc(CN2CCc3c(c(C(=O)NCc4cccc5ccccc45)nn3C3CN(C(=O)C(C)(C)C)C3)C2)c2ccccc12",
    "log10(EC50)": 0.90
  },
  {
    "molecule": "COc1ccc(CN2CCc3c(c(C(=O)NCc4cccc5ccccc45)nn3-c3ccccc3)C2)c2ccccc12",
    "log10(EC50)": 0.88
  },
  {
    "molecule": "COc1ccc(CN2CCc3c(c(C(=O)NCc4cccc5cccnc45)nn3CCO)C2)c2ccccc12",
    "log10(EC50)": 1.38
  },
  {
    "molecule": "COc1ccc(CN2CCc3c(c(C(=O)NCc4cccc5ccccc45)nn3-c3cnccn3)C2)c2ccccc12",
    "log10(EC50)": 1.08
  },
  {
    "molecule": "COc1ccc(CN2CCc3c(c(C(=O)NCc4cccc5ccccc45)nn3CCN)C2)c2c1CCCC2",
    "log10(EC50)": 0.66
  },
  {
    "molecule": "Cn1nc(C(=O)NCc2ccc3ccccc3c2)c2c1CCN(Cc1c[nH]c3ccccc13)C2",
    "log10(EC50)": 1.55
  },
  {
    "molecule": "CCCc1ccc(CN2CCc3c(c(C(=O)NCc4cccc5ccccc45)nn3CCO)C2)cc1",
    "log10(EC50)": 1.51
  },
  {
    "molecule": "COc1ccc2cc(CN3CCc4c(c(C(=O)NCc5cccc6ccccc56)nn4CCO)C3)ccc2c1",
    "log10(EC50)": 2.08
  },
  {
    "molecule": "O=C(NCc1ccccc1)c1nn(CCO)c2c1CN(Cc1cnn(-c3ccccc3)c1)CC2",
    "log10(EC50)": 2.17
  },
  {
    "molecule": "COc1ccc(CN2CCc3c(c(C(=O)NCc4cc(F)cc5ccccc45)nn3CCO)C2)c2ccccc12",
    "log10(EC50)": 1.46
  },
  {
    "molecule": "Cn1nc(C(=O)NCc2ccccc2)c2c1CCN(Cc1cccc(-c3ccccc3)c1)C2",
    "log10(EC50)": 1.53
  },
  {
    "molecule": "O=C(NCc1cccc2ccccc12)c1nn(CCO)c2c1CN(Cc1c[nH]c3cc(OCc4ccccc4)ccc13)CC2",
    "log10(EC50)": 1.86
  },
  {
    "molecule": "O=C(NCc1ccccc1)c1nn(CCO)c2c1CN(CC(c1ccccc1)c1ccccc1)CC2",
    "log10(EC50)": 1.87
  },
  {
    "molecule": "O=C(NCc1ccccc1)c1nn(CCO)c2c1CN(Cc1ccc(OC(F)(F)F)cc1)CC2",
    "log10(EC50)": 1.91
  },
  {
    "molecule": "O=C(NCc1cccc2ccccc12)c1nn(CCO)c2c1CN(Cc1cccc3cc[nH]c13)CC2",
    "log10(EC50)": 1.60
  },
  {
    "molecule": "O=C(NCc1ccccc1)c1nn(CCO)c2c1CN(Cc1ccc(-c3ccccc3)cc1)CC2",
    "log10(EC50)": 1.84
  },
  {
    "molecule": "COc1ccc(CN2CCc3c(c(C(=O)NCc4cccc5ccccc45)nn3C3CCC3)C2)c2ccccc12",
    "log10(EC50)": 1.05
  },
  {
    "molecule": "Cn1nc(C(=O)NCc2ccccc2)c2c1CCN(Cc1c[nH]c3cc(OCc4ccccc4)ccc13)C2",
    "log10(EC50)": 1.34
  },
  {
    "molecule": "O=C(NCc1ccccc1)c1nn(CCO)c2c1CN(Cc1ccc3c(c1)OC=CO3)CC2",
    "log10(EC50)": 2.20
  },
  {
    "molecule": "O=C(NCc1cccc2ccccc12)c1nn(CCO)c2c1CN(Cc1ccc(-c3ccccc3)cc1)CC2",
    "log10(EC50)": 1.02
  },
  {
    "molecule": "CC(NC(=O)c1nn(CCO)c2c1CN(Cc1ccc3ccoc3c1)CC2)c1ccccc1 (stereo not drawn)",
    "log10(EC50)": 2.17
  },
  {
    "molecule": "COc1ccc(CN2CCc3[nH]nc(C(=O)NCc4cccc5ccccc45)c3C2)c2ccccc12",
    "log10(EC50)": 1.22
  },
  {
    "molecule": "CCc1ccc(CN2CCc3c(c(C(=O)NCc4ccccc4)nn3CCO)C2)cc1 [Compound 23]",
    "log10(EC50)": 2.12
  },
  {
    "molecule": "O=C(NCc1ccccc1)c1nn(CCO)c2c1CN(Cc1cccc(OC(F)F)c1)CC2",
    "log10(EC50)": 2.17
  }
]

* * *

- measured_on: PEX5-PEX14 complex (biotin-coupled PEX5 peptide, His-tagged T. brucei PEX14) (Trypanosoma brucei brucei, UniProt Q38CL4)
- Sequence (Q38CL4 1-366, one chain of several): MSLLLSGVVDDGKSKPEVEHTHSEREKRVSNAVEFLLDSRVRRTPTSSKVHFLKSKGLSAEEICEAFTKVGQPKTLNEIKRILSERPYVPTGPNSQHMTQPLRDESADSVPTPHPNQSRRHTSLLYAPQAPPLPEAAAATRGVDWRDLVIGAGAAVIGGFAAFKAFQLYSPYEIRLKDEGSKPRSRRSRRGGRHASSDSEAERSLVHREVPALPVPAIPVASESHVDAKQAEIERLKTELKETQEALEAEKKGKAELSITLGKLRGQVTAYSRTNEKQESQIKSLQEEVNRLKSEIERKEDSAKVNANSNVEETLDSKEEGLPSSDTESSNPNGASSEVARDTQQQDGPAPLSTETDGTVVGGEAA
- method: biochemical
- Format: binding
- condition_context: 30 nM PEX5, 30 nM PEX14; quadruplicate; read-out: AlphaScreen EC50 [μM] (±SD)
- Excerpt: The assay uses two types of beads: donor beads are coupled with streptavidin, and acceptor beads are coupled with an anti His-tag antibody. Upon excitation with light of a wavelength of 680 nm the donor beads produce reactive oxygen species that travel in solution only for a limited distance. […] The raw data were fitted to four parameter sigmoidal curves by Origin software and EC50 values calculated. […]
// values below are reported EC50
attribute_measured: EC50 (µM)

[
  {
    "molecule": "C=C(C)C1CC=C(CN2CCc3c(c(C(=O)NCc4ccccc4)nn3CCO)C2)CC1 (centres unmarked)",
    "attribute_measured": "EC50",
    "assay_result": 142
  },
  {
    "molecule": "COc1ccc(CN2CCc3c(c(C(=O)NCc4cccc(C)c4)nn3CCO)C2)c2ccccc12",
    "attribute_measured": "EC50",
    "assay_result": 38.1
  },
  {
    "molecule": "COc1ccc(CN2CCc3c(c(C(=O)NCc4cccc5ccccc45)nn3CCN3CCOCC3)C2)c2ccccc12",
    "attribute_measured": "EC50",
    "assay_result": 6.72
  },
  {
    "molecule": "CC(=O)c1ccc(CN2CCc3c(c(C(=O)NCc4ccccc4)nn3CCO)C2)cc1",
    "attribute_measured": "EC50",
    "assay_result": 222
  },
  {
    "molecule": "NCCn1nc(C(=O)NCc2cccc3ccccc23)c2c1CCN(Cc1ccc(Cl)c(Cl)c1)C2",
    "attribute_measured": "EC50",
    "assay_result": 11.6
  },
  {
    "molecule": "O=C(NCc1cccc2ccccc12)c1nn(CCO)c2c1CN(CCc1ccccc1)CC2",
    "attribute_measured": "EC50",
    "assay_result": 230
  },
  {
    "molecule": "COc1ccc2c(CN3CCc4c(c(C(=O)NCc5cccc6ccccc56)nn4CCO)C3)c[nH]c2c1",
    "attribute_measured": "EC50",
    "assay_result": 25
  },
  {
    "molecule": "CC(NC(=O)c1nn(CCO)c2c1CN(CC1Cc3ccccc3CN1C)CC2)c1ccccc1 (centres unmarked)",
    "attribute_measured": "EC50",
    "assay_result": 169
  }
]
